Molecular target: Potassium voltage-gated channel subfamily KQT member 2 (Rattus norvegicus)
Assay: KCNQ2 blockade in CHO cells – cell-based, FluxOR thallium flux, counter-screen for hERG block protector project, confirmation (AID 1946)
Settings: FluxOR thallium flux fluorescence, at 10 µM, stronger effect = lower value, zero marks the 3-SD hit cutoff
Screen size: about 2,400 compounds; about 180 (7.5%) were called active. The full list was thinned out, with actives kept by preference.
// values below are reported activity change vs negative control

Solved entries:
>>> df
                                   molecule                                       tgt            result
0  CCC1CCc2c(sc(NC(=O)C3CC=CCC3C(=O)O)c2C#N)C1 (centres undefined)  Potassium voltage-gated channel subfamily KQT member 2 (Rattus norvegicus)  32.7% (inactive)
1     COc1ccccc1C(=O)NNC(=O)C(=O)NCc1ccccc1  Potassium voltage-gated channel subfamily KQT member 2 (Rattus norvegicus)  41.8% (inactive)
2          Cc1c(-c2ccccc2)sc2nc[nH]c(=S)c12  Potassium voltage-gated channel subfamily KQT member 2 (Rattus norvegicus)    75% (inactive)
3  O=C(O)C1C2CCC(O2)C1C(=O)Nc1ccc(F)c(Cl)c1 (centres undefined)  Potassium voltage-gated channel subfamily KQT member 2 (Rattus norvegicus)  10.3% (inactive)
4  COc1cccc(OC)c1C(=O)NC(=S)N1CCN(c2ccc(C(F)(F)F)cc2[N+](=O)[O-])CC1  Potassium voltage-gated channel subfamily KQT member 2 (Rattus norvegicus)      -6% (active)
5  Cc1c(C)c2ccc(OCC(=O)N[C@@H](Cc3ccccc3)C(=O)O)cc2oc1=O  Potassium voltage-gated channel subfamily KQT member 2 (Rattus norvegicus)  11.8% (inactive)
6     N#Cc1ccc(-c2nc3ccc(Br)cc3c(=O)n2O)cc1  Potassium voltage-gated channel subfamily KQT member 2 (Rattus norvegicus)  40.3% (inactive)
7                 O=c1ccc(N=Nc2ccccc2)ccc1O  Potassium voltage-gated channel subfamily KQT member 2 (Rattus norvegicus)   109% (inactive)
8  Cc1cc(C)c(-c2cc(NC(=O)COC(=O)c3ccc(NC(=O)CC#N)cc3)n(-c3ccccc3)n2)cc1C  Potassium voltage-gated channel subfamily KQT member 2 (Rattus norvegicus)   7.4% (inactive)
9  COc1cccc(C(=O)NNC(=O)C(=O)Nc2cccc(Cl)c2C)c1  Potassium voltage-gated channel subfamily KQT member 2 (Rattus norvegicus)  83.6% (inactive)

Recorded activity change vs negative control (molecule COc1ccccc1C(=O)NNC(=O)C(=O)Nc1ccc(C)cc1 ): 162% (inactive)

response.value for CCC1=NN(C(=O)c2ccc(Cl)cc2)C(O)(c2ccccc2)C1 (centres undefined) (field: activity change vs negative control) = -0.9% (active)

activity change vs negative control reported for this molecule CC(C)OC(=O)c1c(NC(=O)c2ccco2)sc2c1CCCCC2 : 3.9% (inactive)

Entry O=C(NC(=S)NNC(=O)c1cccs1)c1ccc(Br)o1 ; activity change vs negative control = 18.8% (inactive)

CSc1nc(C)c2c(n1)N(c1ccc(C(C)C)cc1)CC2 has a reported activity change vs negative control of -2.7% (active)

Noted for CCOC(=O)C(=CNc1ccc(N2CCOCC2)cc1)C(=O)OCC : its activity change vs negative control reads 29.7% (inactive)

---

Target: Potassium voltage-gated channel subfamily KQT member 2 (Rattus norvegicus) (UniProt O88943)
Sequence (O88943 whole entry, looked up): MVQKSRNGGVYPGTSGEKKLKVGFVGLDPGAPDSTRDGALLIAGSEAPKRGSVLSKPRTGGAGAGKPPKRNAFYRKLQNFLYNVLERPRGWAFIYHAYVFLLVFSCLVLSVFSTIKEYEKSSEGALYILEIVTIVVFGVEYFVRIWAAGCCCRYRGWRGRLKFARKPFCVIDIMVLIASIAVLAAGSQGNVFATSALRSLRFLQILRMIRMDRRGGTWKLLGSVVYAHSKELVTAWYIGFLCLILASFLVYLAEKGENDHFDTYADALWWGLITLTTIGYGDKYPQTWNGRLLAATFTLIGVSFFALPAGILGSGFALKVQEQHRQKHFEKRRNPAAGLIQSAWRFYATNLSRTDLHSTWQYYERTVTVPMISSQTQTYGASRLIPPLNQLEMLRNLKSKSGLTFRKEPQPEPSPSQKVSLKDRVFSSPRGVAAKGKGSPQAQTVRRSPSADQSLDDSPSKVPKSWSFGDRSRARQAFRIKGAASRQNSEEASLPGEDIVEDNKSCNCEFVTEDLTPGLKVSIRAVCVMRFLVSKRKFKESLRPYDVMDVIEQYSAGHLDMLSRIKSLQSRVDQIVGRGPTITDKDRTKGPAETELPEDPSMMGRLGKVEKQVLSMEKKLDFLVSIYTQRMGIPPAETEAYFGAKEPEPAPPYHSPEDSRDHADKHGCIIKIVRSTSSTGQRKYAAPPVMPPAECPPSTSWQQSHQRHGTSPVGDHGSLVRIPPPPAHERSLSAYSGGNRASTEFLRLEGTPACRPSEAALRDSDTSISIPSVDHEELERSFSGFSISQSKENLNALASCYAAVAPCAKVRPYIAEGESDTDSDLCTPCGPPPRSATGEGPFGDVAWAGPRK
Experiment: KCNQ2 blockade in CHO cells – cell-based, FluxOR thallium flux, counter-screen for hERG block protector project, confirmation (AID 1946)
Settings: FluxOR thallium flux fluorescence, at 10 µM, stronger effect = lower value, zero marks the 3-SD hit cutoff
Screen size: about 2,400 compounds; about 180 (7.5%) were called active. The full list was thinned out, with actives kept by preference.
reported_metric: activity change vs negative control (%)
# unit: % | format: bare number

For orientation, consider the following solved cases.
                        structure_as_smiles  result_number
0     COC(=O)c1ccc(CSc2ncnc3sc(C)c(C)c23)o1             23
1  COc1ccccc1NC(=S)NC(=O)c1ccc(-c2ccc(Cl)cc2)o1           16.7
2        O=C(NC(=S)Nc1ncc(Br)cc1Br)c1ccccc1           28.8
3          S=c1nn[nH]n1C12CC3CC(CC(C3)C1)C2           36.2

Value of activity change vs negative control reported for the compound CCOc1cc(N2CCOCC2)c(OCC)cc1NC(=O)CCC1CCCC1 is 104

---

Target: Potassium voltage-gated channel subfamily KQT member 2 (Rattus norvegicus)
Experiment: KCNQ2 blockade in CHO cells – cell-based, FluxOR thallium flux, counter-screen for hERG block protector project, confirmation (AID 1946)
Conditions: FluxOR thallium flux fluorescence, at 10 µM, stronger effect = lower value, zero marks the 3-SD hit cutoff
Out of some 2,400 compounds screened, about 180 (7.5%) were called active. This is one part of a sample in which actives are shown more often than they occur.
Recorded activity change vs negative control by entry
Give a bare numeral; the unit % is implied.

For orientation, consider the following solved cases.
>>> df
                                   compound                      reported_metric  result_number
0  COc1ccc(C(=O)NNC(=O)C(=O)Nc2cccc3ccccc23)cc1  activity change vs negative control           80.5
1  Cn1c(O)c(N=NC(=S)Nc2ccccc2F)c2cc(S(=O)(=O)N3CCOCC3)ccc21  activity change vs negative control              4
2  Cc1nc(SCC(=O)NCC2CCCO2)c2c3c(sc2n1)CCCC3 (centres undefined)  activity change vs negative control           32.5
3  Cn1c(NNC(=O)C(c2ccccc2)c2ccccc2)cc(=O)n(C)c1=O  activity change vs negative control           12.8
4  C=CCN(c1ccc(Cl)cc1)S(=O)(=O)c1cccc(C(=O)O)c1  activity change vs negative control           26.2

In the following, a different compound is considered.
get_value(item= CC(=O)CSc1ncnc2sc3c(c12)CCC(C)C3 (centres undefined) , readout=activity change vs negative control) returns 111

---

Target: Potassium voltage-gated channel subfamily KQT member 2 (Rattus norvegicus)
Test: KCNQ2 blockade in CHO cells – cell-based, FluxOR thallium flux, counter-screen for hERG block protector project, confirmation (AID 1946)
Details: FluxOR thallium flux fluorescence, at 10 µM, stronger effect = lower value, zero marks the 3-SD hit cutoff
In all, about 2,400 compounds went through this assay and about 180 (7.5%) were called active. The full list was thinned out, with actives kept by preference.
Quick reference for activity change vs negative control among some molecules

The following molecules have reported results that may help.
>>> print(df.to_string())
                        structure_as_smiles            result
0  Cc1c(N2C(=O)/C(=C\c3ccccc3O)SC2=S)c(=O)n(-c2ccccc2)n1C    90% (inactive)
1  Cc1ccccc1NC(=O)C(=O)NNC(=O)COc1ccc2ccccc2c1  48.1% (inactive)

// COc1ccc(C(=O)NCC(=O)OCn2nnc3ccccc3c2=O)cc1OC : activity change vs negative control value = 5.4% (inactive)

get_value(item= S=c1[nH]c2cc(Cl)ccc2s1 , readout=activity change vs negative control) returns 121% (inactive)

---

Biological target: Potassium voltage-gated channel subfamily KQT member 2 (Rattus norvegicus) (UniProt O88943)
Test: KCNQ2 blockade in CHO cells – cell-based, FluxOR thallium flux, counter-screen for hERG block protector project, confirmation (AID 1946)
Details: FluxOR thallium flux fluorescence, at 10 µM, zero marks the 3-SD hit cutoff
Out of some 2,400 compounds screened, about 180 (7.5%) were called active.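 How the source made its calls: active means readout below zero, meaning a drop past 3 SD under the dofetilide-free negative control mean; inactive means the rest.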 Only a selection was taken, and actives are over-represented in it overall.
Select the correct class. Options are yes = active, no = inactive and nothing else.

Solved cases (10 shown):
In [3]: df
Out[3]:
                                   molecule  class
0   CCCN(CCC)C(=S)NC(=O)c1ccc(-c2ccccc2)cc1     no
1  O=c1c2cc(Cl)ccc2nc(-c2ccc([N+](=O)[O-])cc2)n1O     no
2  CC(C)(C)c1cc(-c2n[nH]c(=S)n2-c2ccccc2F)n[nH]1     no
3  CCOc1ccc2nc(N3C(=O)/C(=C/c4ccc(Cl)cc4)NC3=S)sc2c1     no
4  O=c1c2cc(Cl)ccc2nc(-c2ccc(Cl)c(Cl)c2)n1O     no
5       Cc1ccc(-c2nc3ccc(Cl)cc3c(=O)n2O)cc1     no
6          Oc1c(Cl)cc(Cl)cc1/C=N/c1ncn[nH]1     no
7          Cc1ccc(-c2csc3nc[nH]c(=S)c23)cc1     no
8  Cc1ccc(S(=O)(=O)Nc2ccc(O)c3ccccc23)c(C)c1    yes
9    O=S(=O)(Nc1ccc(O)c2ccccc12)c1ccc(F)cc1     no

[ask] Which outcome was assigned to CCOc1ccc(-c2c(=O)n(O)c3ccccc3[n+]2[O-])cc1 in this test?
[reply] no

[ask] Hey, what did the test say about O=C(COC(=O)C1CCC(=O)N1)Nc1cc(Cl)ccc1Cl (configuration not stated) ?
[reply] no

[ask] Called result for COC(=O)c1ccc(NC(=O)COC(=O)C2CC(=O)N(Cc3ccccc3)C2)cc1 (configuration not stated)
[reply] yes

[ask] How did this test come out for S=c1nc(Cc2ccc(Cl)cc2)[nH]c2ccccc12 ?
[reply] no

[ask] Hey, what did the test say about COc1cccc2sc(Nc3nc(-c4ccccn4)cs3)nc12 ?
[reply] no

[ask] Would you mind telling me which call this test gave Cc1nn(C)c(C(=O)NC(=S)Nc2ccc([N+](=O)[O-])cc2)c1Cl ?
[reply] no

[ask] Test call for this molecule, please: Oc1c(Br)cc(Cl)cc1C=Nc1ccccc1Br
[reply] no

[ask] What did the test return for Cc1cccc(N2C(=O)C(O)=C(C(=O)c3cccs3)C2c2cccc(Oc3ccccc3)c2)n1 (configuration not stated) ?
[reply] no
